- Experimental System: Jak2 (UniProt O60674)
- Sequence (O60674 whole entry, looked up): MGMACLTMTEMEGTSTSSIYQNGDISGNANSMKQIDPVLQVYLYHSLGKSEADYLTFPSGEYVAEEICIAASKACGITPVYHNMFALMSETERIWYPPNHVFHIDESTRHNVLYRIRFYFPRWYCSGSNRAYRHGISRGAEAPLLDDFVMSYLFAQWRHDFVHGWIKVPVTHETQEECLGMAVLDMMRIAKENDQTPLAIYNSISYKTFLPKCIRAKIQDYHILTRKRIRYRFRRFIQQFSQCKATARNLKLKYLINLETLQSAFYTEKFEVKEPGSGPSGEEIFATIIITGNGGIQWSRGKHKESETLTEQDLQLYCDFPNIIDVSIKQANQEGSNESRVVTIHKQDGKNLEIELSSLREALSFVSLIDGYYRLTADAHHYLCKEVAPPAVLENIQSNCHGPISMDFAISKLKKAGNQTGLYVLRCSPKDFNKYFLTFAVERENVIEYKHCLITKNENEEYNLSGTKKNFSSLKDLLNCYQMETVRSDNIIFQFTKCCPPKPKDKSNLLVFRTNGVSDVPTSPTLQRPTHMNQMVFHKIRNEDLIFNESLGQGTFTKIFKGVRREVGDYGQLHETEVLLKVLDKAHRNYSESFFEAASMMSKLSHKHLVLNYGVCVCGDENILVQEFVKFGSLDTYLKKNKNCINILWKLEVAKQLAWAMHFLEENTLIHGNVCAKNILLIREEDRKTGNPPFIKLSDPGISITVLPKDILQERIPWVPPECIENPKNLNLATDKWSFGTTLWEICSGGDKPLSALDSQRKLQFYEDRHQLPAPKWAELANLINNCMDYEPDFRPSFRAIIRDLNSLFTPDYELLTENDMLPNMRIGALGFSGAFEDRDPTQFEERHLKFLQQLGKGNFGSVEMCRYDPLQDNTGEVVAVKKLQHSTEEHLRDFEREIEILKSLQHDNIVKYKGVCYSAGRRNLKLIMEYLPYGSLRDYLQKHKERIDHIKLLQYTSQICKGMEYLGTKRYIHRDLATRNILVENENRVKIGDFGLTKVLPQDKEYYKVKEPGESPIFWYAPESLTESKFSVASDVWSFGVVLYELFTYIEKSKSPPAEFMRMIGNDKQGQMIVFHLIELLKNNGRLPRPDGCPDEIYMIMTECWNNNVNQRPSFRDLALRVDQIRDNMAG
- Assay Text: phosphorylation enrichment, bacterial display (enrichment ratio); higher = better substrate or ligand; peptides without Tyr show the background
Value Kind: phosphorylation enrichment

> print(dat)
                      sequence.record    experimental.system  value.measured
 1        PHMQTYEVDHN [SDHB_Y61_L65H]  Jak2 (UniProt O60674)            0.94
 2     SIKDKYVTALC [KCNH2_Y611_Y616C]  Jak2 (UniProt O60674)           0.653
 3            HSLHDYKEALM [ADA2_Y337]  Jak2 (UniProt O60674)           0.696
 4       KWRGQYDVAIE [BTK_Y425_K430E]  Jak2 (UniProt O60674)           0.708
 5         TQNGVYSAANF [DDX5_Y535_YF]  Jak2 (UniProt O60674)           0.444
 6     PEPHIYAVADV [MYO9A_Y216_L211P]  Jak2 (UniProt O60674)           0.695
 7             GLGGGYGGASG [KRT8_Y54]  Jak2 (UniProt O60674)           0.379
 8      LVPPRYVRSEI [PKP2_Y194_A195V]  Jak2 (UniProt O60674)           0.685
 9            KYWREYILSLE [GPC3_Y299]  Jak2 (UniProt O60674)           0.974
10  GFEVVYVTEPI [HSP90AB1_Y512_M513V]  Jak2 (UniProt O60674)           0.983

---

- Experimental System: Grb2 SH2 (UniProt P62993)
- Sequence (P62993 whole entry, looked up): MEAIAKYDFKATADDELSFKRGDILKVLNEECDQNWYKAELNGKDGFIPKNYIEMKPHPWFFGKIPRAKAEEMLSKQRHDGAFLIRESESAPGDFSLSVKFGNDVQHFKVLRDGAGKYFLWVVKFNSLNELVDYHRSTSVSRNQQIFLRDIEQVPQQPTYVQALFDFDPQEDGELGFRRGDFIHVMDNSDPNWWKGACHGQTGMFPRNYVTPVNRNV
- Assay Text: SH2 binding enrichment of the phosphorylated peptide, bacterial display (enrichment ratio); higher = better substrate or ligand; peptides without Tyr show the background
Value Kind: SH2 binding enrichment

> print(dat)
                    sequence.record        experimental.system              value.kind  value.measured
1       HDRNTYEKYLE [TF_Y666_G671E]  Grb2 SH2 (UniProt P62993)  SH2 binding enrichment           0.681
2             CLAKMYYSAVD [CP_Y539]  Grb2 SH2 (UniProt P62993)  SH2 binding enrichment           0.942
3   HSFQCYGQNEA [ENTPD3_Y262_R264Q]  Grb2 SH2 (UniProt P62993)  SH2 binding enrichment           0.968
4  TFVKSYTIHFS [F5_Y2153_M2148T_YF]  Grb2 SH2 (UniProt P62993)  SH2 binding enrichment            0.97
5           HRTLVYGGIFL [FBP1_Y259]  Grb2 SH2 (UniProt P62993)  SH2 binding enrichment           0.747
6     IFGVSYGEYRY [CFTR_Y512_D513G]  Grb2 SH2 (UniProt P62993)  SH2 binding enrichment            1.05
7   DAANNYARGHY [TUBA3E_Y103_S101N]  Grb2 SH2 (UniProt P62993)  SH2 binding enrichment            0.85
